TARGET_OR_TEST_SYSTEM: His-BIR2-3 (125-356, C202A/C213G, XIAP) (Homo sapiens, UniProt P98170, C202A/C213G)
Construct: additions of His-BIR2-3 (125-356, C202A/C213G, XIAP), fluorescein labeled dimeric SMAC peptide
Sequence (P98170 125-356 C202A/C213G): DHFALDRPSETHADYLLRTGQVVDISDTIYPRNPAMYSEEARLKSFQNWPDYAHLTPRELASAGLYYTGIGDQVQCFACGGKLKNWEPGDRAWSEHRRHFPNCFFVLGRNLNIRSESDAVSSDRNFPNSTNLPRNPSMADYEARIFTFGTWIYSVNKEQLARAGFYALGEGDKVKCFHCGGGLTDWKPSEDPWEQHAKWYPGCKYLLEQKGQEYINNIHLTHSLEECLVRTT
PROTOCOL: XIAP-BIR2-3 Dimeric SMAC Peptide Homogeneous Time Resolved Fluorescence (HTRF) Assay
COND: fluorescein labeled dimeric SMAC peptide
pIC50: −log10 of the molar value.

{"columns": ["COMPOUND", "pIC50"],
 "data": [
  ["CN[C@@H](C)C(=O)N[C@H](C(=O)N1C[C@H]2C/C=C/COc3ccc(cc3)C[C@@H](C(=O)O)NC(=O)[C@H](Cc3ccc4ccccc4c3)NC(=O)[C@@H]3C[C@@H](CN3C(=O)[C@@H](NC(=O)[C@H](C)NC)C(C)(C)C)NC(=O)c3ccc(cc3)C[C@@H](C(=O)O)NC(=O)C(Cc3ccc4ccccc4c3)NC(=O)[C@@H]1C2)C(C)(C)C (stereo partly drawn)", 8.96],
  ["CN[C@@H](C)C(=O)N[C@H](C(=O)N1C[C@@H]2C[C@H]1C(=O)N[C@@H](Cc1ccc3ccccc3c1)C(=O)N[C@H](C(=O)NS(=O)(=O)C1CC1)Cc1ccc(cc1)OCc1cn(nn1)[C@H]1C[C@@H](C(=O)N[C@@H](Cc3ccc4ccccc4c3)C(=O)N[C@H](C(=O)O)Cc3ccc(cc3)OC/C=C/CO2)N(C(=O)[C@@H](NC(=O)[C@H](C)NC)C(C)(C)C)C1)C1CCNCC1", 8.82],
  ["CNC(C)C(=O)NC(C(=O)N1CC2CC1C(=O)NC(Cc1ccc3ccccc3c1)C(=O)NC(C(=O)O)Cc1ccc(cc1)OCCCCC1CC(C(=O)NC(Cc3ccc4ccccc4c3)C(=O)NC(C(=O)NS(=O)(=O)C(C)C)Cc3ccc(cc3)OCc3cn2nn3)N(C(=O)C(NC(=O)C(C)NC)C(C)(C)C)C1)C(C)(C)C (stereo not drawn)", 8.51]
]}

----------
TARGET_OR_TEST_SYSTEM: His-BIR3 (241-356, XIAP) (Homo sapiens)
Construct: additions of His-BIR3 (241-356, XIAP), fluorescein labeled SMAC peptide
Sequence (P98170 241-356): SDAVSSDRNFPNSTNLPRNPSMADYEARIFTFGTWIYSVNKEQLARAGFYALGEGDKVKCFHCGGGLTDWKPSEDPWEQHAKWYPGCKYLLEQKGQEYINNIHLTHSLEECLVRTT
PROTOCOL: XIAP-BIR3/SMAC Homogeneous Time Resolved Fluorescence (HTRF) Assay
COND: fluorescein labeled SMAC peptide
READOUT_NAME: IC50 (nM)

{"columns": ["COMPOUND", "ENDPOINT_UNIT", "VALUE_REPORTED"],
 "data": [
  ["CN[C@@H](C)C(=O)N[C@H](C(=O)N[C@H]1C/C=C/CC[C@@H](C(=O)O)NC(=O)[C@H](Cc2ccc3ccccc3c2)NC(=O)[C@@H]2CN(CCN2C(=O)[C@@H](NC(=O)[C@H](C)NC)C(C)(C)C)C(=O)CNC(=O)CC[C@@H](C(=O)O)NC(=O)[C@H](Cc2ccc3ccccc3c2)NC1=O)C(C)(C)C", "nM", 206],
  ["CN[C@@H](C)C(=O)N[C@H](C(=O)N1CC[C@@H]2OC/C=C/COc3ccc(cc3)C[C@@H](C(=O)O)NC(=O)[C@H](Cc3ccc4ccccc4c3)NC(=O)[C@@H]3[C@H](CCN3C(=O)[C@@H](NC(=O)[C@H](C)NC)C(C)(C)C)OCc3cn(nn3)[C@H](C(=O)NS(C)(=O)=O)CCCNC(=O)[C@H](Cc3ccc4ccccc4c3)NC(=O)[C@H]21)C(C)(C)C", "nM", 5.8],
  ["CN[C@@H](C)C(=O)N[C@H](C(=O)N1C[C@@H]2C[C@H]1C(=O)N[C@@H](Cc1ccc3ccccc3c1)C(=O)N[C@H](C(=O)O)Cc1ccc(cc1)C(=O)N[C@H]1C[C@@H](C(=O)N[C@@H](Cc3ccc4ccccc4c3)C(=O)N[C@H](C(=O)O)Cc3ccc(cc3)OC/C=C/CO2)N(C(=O)[C@@H](NC(=O)[C@H](C)NC)C(C)(C)C)C1)C1CCOCC1", "nM", 5.2],
  ["CN[C@@H](C)C(=O)N[C@H](C(=O)N1C[C@@H]2C[C@H]1C(=O)N[C@@H](Cc1ccc3ccccc3c1)C(=O)N[C@H](C(=O)O)Cc1ccc(cc1)C(=O)N[C@H]1C[C@@H](C(=O)N[C@@H](Cc3ccc4ccccc4c3)C(=O)N[C@H](C(=O)O)Cc3ccc(cc3)OC/C=C/CO2)N(C(=O)[C@@H](NC(=O)[C@H](C)NC)C(C)(C)C)C1)C(C)C [Example 68]", "nM", 15.5],
  ["CN[C@@H](C)C(=O)N[C@H](C(=O)N[C@H]1C/C=C/COc2ccc(cc2)C[C@H](C(=O)O)NC(=O)[C@H](Cc2ccc3ccccc3c2)NC(=O)[C@@H]2[C@@H](CCN2C(=O)[C@@H](NC(=O)[C@H](C)NC)C(C)(C)C)OCc2cn(nn2)CC[C@@H](C(=O)OC)NC(=O)[C@H](Cc2ccc3ccccc3c2)NC1=O)C(C)(C)C", "nM", 1.8],
  ["CNC(C)C(=O)NC(C(=O)N1CC2CC1C(=O)NC(Cc1ccc3ccccc3c1)C(=O)NC(C(=O)O)Cc1ccc(cc1)OCC=CCOC1CC(C(=O)NC(Cc3ccc4ccccc4c3)C(=O)NC(C(=O)O)CCCCC(=O)N2)N(C(=O)C(NC(=O)C(C)NC)C(C)(C)C)C1)C(C)(C)C (stereo not drawn)", "nM", 5.8]
]}

----------
TARGET_OR_TEST_SYSTEM: His-BIR2 (124-240/C202A/C213G) (Homo sapiens, UniProt P98170, C202A/C213G)
Construct: additions of His-BIR2 (124-240/C202A/C213G), Biotinylated SMAC peptide
Sequence (P98170 124-240 C202A/C213G): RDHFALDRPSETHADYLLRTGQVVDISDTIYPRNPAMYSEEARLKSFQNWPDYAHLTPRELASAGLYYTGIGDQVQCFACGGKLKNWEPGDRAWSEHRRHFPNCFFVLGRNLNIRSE
PROTOCOL: XIAP-BIR2/SMAC Peptide AlphaScreen Assay
Format: binding
COND: biotinylated SMAC peptide, read-out: BIR2 ALPHA IC50
READOUT_NAME: IC50

{"columns": ["MOLECULE", "TARGET_OR_TEST_SYSTEM", "VALUE_REPORTED"],
 "data": [
  ["CNC(C)C(=O)NC(C(=O)N1CC2CC1C(=O)NC(Cc1ccc3ccccc3c1)C(=O)NC(C(=O)O)Cc1ccc(cc1)OCC=CCOC1CC(C(=O)NC(Cc3ccc4ccccc4c3)C(=O)NC(C(=O)O)Cc3ccc(cc3)C(=O)N2)N(C(=O)C(NC(=O)C(C)NC)C(C)(C)C)C1)C(C)(C)C (stereo not drawn) [Example 32]", "His-BIR2 (124-240/C202A/C213G) (Homo sapiens, UniProt P98170, C202A/C213G)", "16.2 nM"],
  ["CN[C@@H](C)C(=O)N[C@H](C(=O)N1C[C@@H]2C[C@H]1C(=O)N[C@@H](Cc1ccc3ccccc3c1)C(=O)N[C@H](C(=O)O)COC/C=C/CO[C@H]1C[C@@H](C(=O)N[C@@H](Cc3ccc4ccccc4c3)C(=O)N[C@H](C(=O)O)Cc3ccc(cc3)C(=O)N2)N(C(=O)[C@@H](NC(=O)[C@H](C)NC)C(C)(C)C)C1)C(C)(C)C [Example 39]", "His-BIR2 (124-240/C202A/C213G) (Homo sapiens, UniProt P98170, C202A/C213G)", "41.1 nM"],
  ["CN[C@@H](C)C(=O)N[C@H](C(=O)N1C[C@@H]2C[C@H]1C(=O)N[C@@H](Cc1ccc3ccccc3c1)C(=O)N[C@H](C(=O)O)C/C=C/CO[C@H]1C[C@@H](C(=O)N[C@@H](Cc3ccc4ccccc4c3)C(=O)N[C@H](C(=O)O)CCCC(=O)N2)N(C(=O)[C@@H](NC(=O)[C@H](C)NC)C(C)(C)C)C1)C(C)(C)C [Example 38]", "His-BIR2 (124-240/C202A/C213G) (Homo sapiens, UniProt P98170, C202A/C213G)", "116 nM"],
  ["CN[C@@H](C)C(=O)N[C@H](C(=O)N1C[C@@H]2C[C@H]1C(=O)N[C@@H](Cc1ccc3ccccc3c1)C(=O)N[C@H](C(=O)O)Cc1ccc(cc1)OC/C=C/CO[C@H]1C[C@@H](C(=O)N[C@@H](Cc3ccc4ccccc4c3)C(=O)N[C@H](C(=O)O)CC(=O)N2)N(C(=O)[C@@H](NC(=O)[C@H](C)NC)C(C)(C)C)C1)C(C)(C)C [Example 41]", "His-BIR2 (124-240/C202A/C213G) (Homo sapiens, UniProt P98170, C202A/C213G)", "45.7 nM"],
  ["CN[C@@H](C)C(=O)N[C@H](C(=O)N1C[C@@H]2C[C@H]1C(=O)N[C@@H](Cc1ccc3ccccc3c1)C(=O)N[C@H](C(=O)O)C/C=C/CO[C@H]1C[C@@H](C(=O)N[C@@H](Cc3ccc4ccccc4c3)C(=O)N[C@H](C(=O)O)CCC(=O)N2)N(C(=O)[C@@H](NC(=O)[C@H](C)NC)C(C)(C)C)C1)C(C)(C)C [Example 35]", "His-BIR2 (124-240/C202A/C213G) (Homo sapiens, UniProt P98170, C202A/C213G)", "49.1 nM"],
  ["CN[C@@H](C)C(=O)N[C@H](C(=O)N1C[C@@H]2C[C@H]1C(=O)N[C@@H](Cc1ccc3ccccc3c1)C(=O)N[C@H](C(=O)O)COC/C=C/CO[C@H]1C[C@@H](C(=O)N[C@@H](Cc3ccc4ccccc4c3)C(=O)N[C@H](C(=O)O)CCC(=O)N2)N(C(=O)[C@@H](NC(=O)[C@H](C)NC)C(C)(C)C)C1)C(C)(C)C [Example 34]", "His-BIR2 (124-240/C202A/C213G) (Homo sapiens, UniProt P98170, C202A/C213G)", "33.6 nM"]
]}
